- Method Description: Quantitative High-Throughput drug screen in 47 multiple myeloma cell lines against the NCATS MIPE library collection: KMS27_JCRB cell viability assay (AID 1918970); also: nearly all actives have a fitted effect of over 30% in size
- Condition Parameters: KMS27 myeloma cells, CellTiter-Glo ATP viability, 48 h
- Source text: PI: Beverly A. Mock Ph.D. Laboratory of Cancer Biology and Genetics, Center for Cancer Research, National Cancer Institute, National Institute of Health, Bethesda, Maryland […] 5; Detector; 425V; Luminescence; Viewlux PerkinElmer. […] 1. […] Briefly, the corresponding myeloma cell lines were screened in 1,536-well plates with 500 cells, 5-uL per well for inhibition of cell viability (assessed by measuring ATP levels with CellTiterGlo). […]
Records with an inconclusive call do not appear. Calls of active or inactive are those of the source. Calls follow the shape of the dose curve; as a rule, active = well fitted cell-killing curve with a large enough effect; inconclusive = small, poorly fitted or top-dose-only effect, or effect the other way; inactive = no such curve, though single readings can be large or run the other way.
Respond using exactly one of the listed classes: active, inactive

# example entries with known answers
>>> class_name("CNC1CCC(N(Cc2cccc(-c3ccncc3)c2)C(=O)c2sc3ccccc3c2Cl)CC1 (stereo not given)")
"active"
>>> class_name("O=C(NCCCCN1CCOCC1)c1cc2ccccc2o1")
"inactive"
>>> class_name("CC(C)Oc1cc(Nc2nc(N[C@@H](C)c3ccc(F)cn3)ncc2Cl)[nH]n1")
"active"
>>> class_name("CC[C@H](C=C[C@@H](C)[C@H]1CC[C@H]2[C@@H]3CC=C4C[C@@H](O)CC[C@]4(C)[C@@H]3CC[C@]12C)C(C)C")
"inactive"

We now examine a further molecule.
Asked: Record lookup: outcome of this test for "Cc1cccc(-c2[nH]c(C(C)(C)C)nc2-c2ccc3c(c2)OCO3)n1" ?
Given back: active

* * *

- Method Description: Quantitative High-Throughput drug screen in 47 multiple myeloma cell lines against the NCATS MIPE library collection: PE2_PLB cell viability assay (AID 1919869); also: nearly all actives have a fitted effect of over 35% in size; also: potency is read from the fitted curve at half-maximal effect
- Condition Parameters: PE2_PLB myeloma cells viability, ATP luminescence, 48 h; series mostly up to 45.8 µM
- Excerpt: PI: Beverly A. Mock Ph.D. Laboratory of Cancer Biology and Genetics, Center for Cancer Research, National Cancer Institute, National Institute of Health, Bethesda, Maryland […] 5; Detector; 425V; Luminescence; Viewlux PerkinElmer. […] 1. […] Briefly, the corresponding myeloma cell lines were screened in 1,536-well plates with 500 cells, 5-uL per well for inhibition of cell viability (assessed by measuring ATP levels with CellTiterGlo). […]
Inconclusive results are not listed. Activity calls are given as the source filed them. The call rests on the fitted dose curve; in most records, active means well fitted cell-killing curve with a large enough effect; inconclusive means small, poorly fitted or top-dose-only effect, or effect the other way; inactive means no such curve, though single readings can be large or run the other way.
Measurement Label: Potency

Take a look at these entries with their results.
>>> value_measured("O=c1[nH]c(=O)n([C@H]2C[C@@H](O)[C@@H](CO)O2)cc1I")
"inactive"
>>> value_measured("Cc1[nH]c(C=C2C(=O)Nc3ccc(S(=O)(=O)N(C)c4cccc(Cl)c4)cc32)c(C)c1C(=O)N1CCN(C)CC1")
"16.6 µM (active)"
>>> value_measured("CN1CCC(COc2cnc(-c3cccc(Cn4nc(-c5cccc(C#N)c5)ccc4=O)c3)nc2)CC1")
"1.05 µM (active)"
>>> value_measured("CC1CNc2c(cccc2S(=O)(=O)N[C@@H](CCCN=C(N)N)C(=O)N2CC[C@@H](C)C[C@@H]2C(=O)O)C1 (some centres undefined)")
"inactive"
>>> value_measured("O[C@@H](COc1cccc2ncccc12)CN1CCN(C2c3ccccc3[C@@H]3[C@H](c4ccccc42)C3(F)F)CC1 (some centres undefined)")
"16.6 µM (active)"

Each compound below has a reported value. Please supply its Potency.
1. COc1nccc(-c2c(-c3ccc(F)cc3)ncn2C2CCC(O)CC2)n1 (centres undefined)
2. COc1ccc(-c2nc3ccc(C4=NNC(=O)CC4C)cc3[nH]2)cc1 (centres undefined)
3. CCC(=O)NCC[C@@H]1CCc2ccc3c(c21)CCO3
4. CC1(C)C(N(O)C(=O)Nc2ccc(Cl)cc2)N(c2ccc(Cl)cc2)C(=O)N1CC(=O)NN=CC=Cc1ccc([N+](=O)[O-])o1 (centres undefined)

Given back:
["18.7 µM (active)", "inactive", "inactive", "6.62 µM (active)"]
